- TEST_PROTOCOL: Plasma pharmacokinetics of etoposide after oral administration (HPLC)
- SETUP_CONDITIONS: human, 40 mg
RECORDED_METRIC: Cmax (nM)
Give the value, in units of nM, as a plain number.

q: Given the entry COc1cc([C@@H]2c3cc4c(cc3[C@@H](O[C@@H]3O[C@@H]5CO[C@@H](C)O[C@H]5[C@H](O)[C@H]3O)[C@H]3COC(=O)[C@H]23)OCO4)cc(OC)c1O [etoposide] , report its measured Cmax.
a: 1230

====

- TEST_PROTOCOL: Plasma pharmacokinetics of etoposide after oral administration (HPLC)
- SETUP_CONDITIONS: human, 20 mg
RECORDED_METRIC: Tmax (h)
Give the value, in units of h, as a plain number.

q: Given the entry COc1cc([C@@H]2c3cc4c(cc3[C@@H](O[C@@H]3O[C@@H]5CO[C@@H](C)O[C@H]5[C@H](O)[C@H]3O)[C@H]3COC(=O)[C@H]23)OCO4)cc(OC)c1O [etoposide] , report its measured Tmax.
a: 2.4
